System: U251 CNS
Assay: NCI-60 one-dose screen, 48 h
Settings: 10 µM unless noted
The panel holds about 83,000 compounds, 20% with a hit somewhere; the sample as a whole holds those more often. Calls of active or inactive are those of the source. How the source made its calls: active means growth percent below 10; inactive means the rest.
Outcome codes: active, inactive

MOLECULE | LABEL_VALUE
C[Se]C(=O)CC1=C2C=C(F)C=CC2/C(=C\c2ccc(S(C)=O)cc2)C1C (stereo not given) | active
CC(=O)N(Cc1ccccc1)c1nc2ccc(O)c(CN(C)C)c2s1 | inactive
COC(=O)/C=C1/SC(=Nc2cccc(Cl)c2)N(CCc2c[nH]c3ccc(O)cc23)C1=O | active
O=C(O)CCCc1cnc2c3sccc3nc(SCc3c(Cl)cccc3Cl)n12 | inactive
CCN1C(=O)N(CC)C2C1NN=C1SCC(=O)N12 (stereo not given) | inactive
COc1cc(C(=O)/C=C/c2ccc(N3CCN(C)CC3)cc2)cc(OC)c1OC | inactive
Cc1cc(C)cc(Nc2ccc([N+](=O)[O-])c(NCCN3CCOCC3)n2)c1 | inactive
CN1CCN(Cc2ccc(NC(=O)c3cncc(C#Cc4cncc5[nH]ncc45)c3)cc2C(F)(F)F)CC1 | inactive
C/C(=C(/c1ccc(Cl)cc1)c1ccc(OCCCN(C)C)cc1)c1ccc(Cl)cc1 | inactive
N#CC(C#N)N=Nc1ccc(Cl)cc1Cl | inactive
